- MEASUREMENT_TARGET: Gal-1 (Homo sapiens, UniProt P09382)
- Construct: made in house
- Sequence (P09382 whole entry): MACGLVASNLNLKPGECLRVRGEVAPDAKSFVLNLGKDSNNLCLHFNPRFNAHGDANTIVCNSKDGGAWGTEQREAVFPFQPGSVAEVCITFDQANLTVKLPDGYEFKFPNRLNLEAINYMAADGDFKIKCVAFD
- ASSAY_PROCEDURE: competitive fluorescence polarisation assay, Gal-1
- Type: binding
- CONDITION_NOTES: ratio of FP Kd values
Gal-1 selectivity ratio Kd (Gal-1)/Kd (Gal-8N) values, listed per item
ENDPOINT_NAME: Gal-1 selectivity ratio Kd (Gal-1)/Kd (Gal-8N)

COC(=O)c1cccc(-n2cc(CO[C@@H]3[C@@H](OCc4nc5ccc(C(=O)O)cc5n4C)[C@@H](O)[C@@H](CO)O[C@@H]3Sc3ccc(Cl)c(Cl)c3)nn2)c1 [Compound 15b] = 23
Cn1c(CO[C@H]2[C@@H](O)[C@@H](CO)O[C@H](Sc3ccc(Cl)c(Cl)c3)[C@@H]2OCc2ccccc2)nc2ccc(C(=O)O)cc21 = 9.4
Cn1c(CO[C@H]2[C@@H](O)[C@@H](CO)O[C@H](Sc3ccc(Cl)c(Cl)c3)[C@@H]2OCc2cn(-c3ccccc3C(=O)O)nn2)nc2ccc(C(=O)O)cc21 [Compound 16a] = 57

Entry source: paper PMC11850616
